# measurement description: Whole plasma pharmacokinetics of benznidazole in mice (HPLC)
# Type: in vivo, mouse
# condition set: male, mouse, plasma, ip; BALB/c mice, 26 mg kg-1 i.p., suspension in 50% polyethylene glycol; read-out: elimination half-life (95% confidence limits)
readout name: half-life (h)

1. O=C(Cn1ccnc1[N+](=O)[O-])NCc1ccccc1 [benznidazole, N-benzyl-(2-nitroimidazolyl) acetamide] ... 1.55

###

# measurement description: Penetration into mouse liver
# Format: in vivo
# condition set: both sexes, C3H/He, mouse, liver / whole plasma, ip, 78 mg kg-1, C3H/He, 78 mg kg-1 i.p., 0.5 h; read-out: liver/whole plasma ratio
readout name: Kp at 0.5 h

1. O=C(Cn1ccnc1[N+](=O)[O-])NCc1ccccc1 [benznidazole, N-benzyl-(2-nitroimidazolyl) acetamide] ... 0.758

###

# measurement description: Whole plasma pharmacokinetics in dogs (HPLC)
# Format: in vivo, dog
# condition set: collie crossbred, dog, plasma, po, 25 mg/kg, dog D, 25 mg kg-1 oral; 95% confidence limits 8.9-10.6; read-out: elimination half-life t1/2β (converted)
readout name: half-life (h)

1. O=C(Cn1ccnc1[N+](=O)[O-])NCc1ccccc1 [benznidazole, N-benzyl-(2-nitroimidazolyl) acetamide] ... 9.7

###

# measurement description: Penetration into brain and peripheral nerve in dogs
# Format: in vivo, dog
# condition set: dog, peripheral nerve, po, 25 mg kg-1, dog H, 25 mg kg-1 oral, 4 h; read-out: peripheral nerve/plasma ratio
readout name: Kp at 4 h

1. O=C(Cn1ccnc1[N+](=O)[O-])NCc1ccccc1 [benznidazole, N-benzyl-(2-nitroimidazolyl) acetamide] ... 0.84

###

# measurement description: Whole plasma pharmacokinetics in dogs (HPLC)
# Format: in vivo, dog
# condition set: beagle, dog, plasma, po, 50 mg/kg, dog F, 50 mg kg-1 oral
readout name: AUC(0-inf)

1) O=C(Cn1ccnc1[N+](=O)[O-])NCc1ccccc1 [benznidazole, N-benzyl-(2-nitroimidazolyl) acetamide] ... 707 µg·h/mL

###

# measurement description: Penetration into mouse liver
# Format: in vivo
# condition set: male, BALB/c, mouse, liver / whole plasma, ip, 78 mg kg-1, BALB/c, 78 mg kg-1 i.p., 3.0 h; read-out: liver/whole plasma ratio
readout name: Kp at 3 h

1) O=C(Cn1ccnc1[N+](=O)[O-])NCc1ccccc1 [benznidazole, N-benzyl-(2-nitroimidazolyl) acetamide] ... 0.348

###

# measurement description: Whole plasma pharmacokinetics in sheep (HPLC)
# Type: in vivo
# condition set: male, Clun Forest/Border Leicester cross, sheep, plasma, iv, sheep, summary value; read-out: elimination t1/2
readout name: half-life

1. O=C(Cn1ccnc1[N+](=O)[O-])NCc1ccccc1 [benznidazole, N-benzyl-(2-nitroimidazolyl) acetamide] ... 4 to 5 h

###

# measurement description: Whole plasma pharmacokinetics of benznidazole in mice (HPLC)
# Assay type: in vivo, mouse
# condition set: male, mouse, plasma, ip; BALB/c mice, 26 and 78 mg kg-1 i.p.; read-out: time of peak plasma concentration (converted)
readout name: Tmax

1. O=C(Cn1ccnc1[N+](=O)[O-])NCc1ccccc1 [benznidazole, N-benzyl-(2-nitroimidazolyl) acetamide] ... 15 to 30 min

###

# measurement description: Penetration into brain and peripheral nerve in dogs
# Type: in vivo, dog
# condition set: dog, peripheral nerve, po, 25 mg kg-1, dog H, 25 mg kg-1 oral, 3 h; read-out: peripheral nerve/plasma ratio
readout name: Kp at 3 h

1. O=C(Cn1ccnc1[N+](=O)[O-])NCc1ccccc1 [benznidazole, N-benzyl-(2-nitroimidazolyl) acetamide] ... 0.78
